All values here come from the nanobody polyreactivity screen of Harvey et al. (2022).

# method.notes: yeast display, Sf9 membrane polyspecificity reagent, FACS + sequencing; frameworks hold sequencing errors
assay.metric: polyreactivity (PSR sort gate)

Here is how some sequences turned out for polyreactivity (PSR sort gate).
QVQLVESGGGLVQAGGSLRLSCAASGIIFSPYAMGWYRQAPGNERELVAAISYSGGSTYYADSVKGRFTISRDNAKNTVYLQMNSLKPEDTAVYYCAVVYSYYLAVLGYWDYDYWGQGTQVTVSS low polyreactivity
QVQLVESGGRLVQAGGSLRLSCAATGSTFYKNPMGRYRHAPRKEREVVAAISTSGGSTYYADSLKGRFTISRDNAKNTVYLHMNRLKPEDTAVNYCATRRRIPSSCYYDNDYWGQGTQVTVSS high polyreactivity
QVQLVESGGGLVQAGGSLRLSCAASGSIFYQYAMGWYRQAPGKEREMLAAIRYSGSSTYYADSVKGRFTISRDNAKNTVYLQMNSLKPEDTEVYYCGKTLRRRRGDRRYRVIEMDHWGQGTQVTVSS low polyreactivity
KCQLVDSGGGLVQAGGSLRLSCAASGSIFYVKAMGWYRQAPGKEREFVADITYTGGSTYYADSVNGRFTISRDNAKNTVYLQMNSLKPEDTAVYYCAADLYTTYVAIYDYWGQGTQVTVSS low polyreactivity

Give polyreactivity (PSR sort gate) for each of the items listed below.
1. QVQLVESGGGLVQAGGSLRLSCAASGSIFYSNTIGWYRQAPRKERELDAAITSGGGTNYADSVKGRFTISRDNAKNTVYLQMNSLKPEDTAVYYCAAVTKTLYRSYFLMYYWGQGTQVTVSS
2. QVQLVESGRRLVQAGGSLRLSCAASGSTFYGYGMGWYRQAPGKERELVAAITGSGDTTYYADSVKGRFTISRDNAKNTVYLQLNSLKPEDTAVDYCNARWHAEYDYWGQGTQVTVSS

high polyreactivity
low polyreactivity
